System: Sendai virus (SeV)
test-details: microbe, parasite or virus in culture
Format: cell-based
assay-setup: Respirovirus muris, read-out: IC50, infection rate of SeV
observable: pIC50
pIC50 field: float, defined as -log10 of concentration (mol/L).

Worked cases, answers included:
molecule | experimental-system | pIC50
CCC(CC)COC(=O)[C@H](C)N[P@](=O)(OC[C@H]1O[C@@](C#N)(c2ccc3c(N)ncnn23)[C@H](O)[C@@H]1O)Oc1ccccc1 [remdesivir] | Sendai virus (SeV) | 7.11
CO[C@H]1/C=C/O[C@@]2(C)Oc3c(C)c(O)c4c(O)c(c(/C=N/N5CCN(C)CC5)c(O)c4c3C2=O)NC(=O)/C(C)=C\C=C\[C@H](C)[C@H](O)[C@@H](C)[C@@H](O)[C@@H](C)[C@H](OC(C)=O)[C@@H]1C [Rifampin, rifampin] | Sendai virus (SeV) | 5.41
CCc1ccc(CCOc2ccc(CC3SC(=O)NC3=O)cc2)nc1 (stereo not drawn) [Pioglitazone, pioglitazone] | Sendai virus (SeV) | 5.31
CC(c1cc2ccccc2s1)N(O)C(N)=O (stereo not drawn) [Zileuton, zileuton] | Sendai virus (SeV) | 5.35
O=C(c1ccc(OCCN2CCCCC2)cc1)c1c(-c2ccc(O)cc2)sc2cc(O)ccc12 [Raloxifene, raloxifene] | Sendai virus (SeV) | 5.37

Next molecule, pIC50 to be filled in.
# lookup: pIC50 of O=C(Nc1cccc2c(=O)cc(-c3nnn[nH]3)oc12)c1ccc(OCCCCc2ccccc2)cc1 [Pranlukast, pranlukast]
5.30

---

System: SARS-CoV-2
test-details: microbe, parasite or virus in culture
Assay type: cell-based
observable: effect on virus: SARS-CoV-2

compound | experimental-result
CC/C(=C(\c1ccccc1)c1ccc(OCCN(C)C)cc1)c1ccccc1 | +
CO[C@H]1/C=C/O[C@@]2(C)Oc3c(C)c(O)c4c(O)c(c(/C=N/N5CCN(C)CC5)c(O)c4c3C2=O)NC(=O)/C(C)=C\C=C\[C@H](C)[C@H](O)[C@@H](C)[C@@H](O)[C@@H](C)[C@H](OC(C)=O)[C@@H]1C | N.S.
O=C(c1ccc(OCCN2CCCCC2)cc1)c1c(-c2ccc(O)cc2)sc2cc(O)ccc12 | +
CC(c1cc2ccccc2s1)N(O)C(N)=O (centres unmarked) | −
CN(C)CCOc1ccc(/C(=C(/CCCl)c2ccccc2)c2ccccc2)cc1 | +
CCN(CC)CCOc1ccc(/C(=C(/Cl)c2ccccc2)c2ccccc2)cc1 | +
O=C(Nc1cccc2c(=O)cc(-c3nnn[nH]3)oc12)c1ccc(OCCCCc2ccccc2)cc1 | N.S.

Next compound, effect on virus: SARS-CoV-2 to be filled in.
# lookup: effect on virus: SARS-CoV-2 of CCc1ccc(CCOc2ccc(CC3SC(=O)NC3=O)cc2)nc1 (centres unmarked)
+

---

System: Ebola trVLP
test-details: microbe, parasite or virus in culture
assay-setup: Zaire ebolavirus, Huh-7, read-out: IC50, Ebola trVLP infection
Below: a set of entries, each annotated with reported pIC50.
pIC50 field: float, defined as -log10 of concentration (mol/L).

compound-smiles | experimental-result
CCC(CC)COC(=O)[C@H](C)N[P@](=O)(OC[C@H]1O[C@@](C#N)(c2ccc3c(N)ncnn23)[C@H](O)[C@@H]1O)Oc1ccccc1 | 6.92

Next compound, pIC50 to be filled in.
# lookup: pIC50 of `O=C(c1ccc(OCCN2CCCCC2)cc1)c1c(-c2ccc(O)cc2)sc2cc(O)ccc12`
6.06

From: patent US20230147364A1
